Origin of measurements: ChEMBL document CHEMBL1137315

System: HT-29
assay-text: Cytotoxicity against human HT29 cell line by methylene blue dye assay
Format: functional, cell-based
We label by threshold. Values of IC50 strictly beneath 50 nM are y. Values of 50 nM and up are n.

{"query-smiles": "COc1ccc(S(=O)(=O)N2CCc3cccc(NC(=O)c4ccc(F)cc4)c32)cc1", "target-of-assay": "HT-29", "category": "n"}
{"query-smiles": "COc1ccc(S(=O)(=O)N2CCc3cccc(NC(=O)c4ccco4)c32)cc1", "target-of-assay": "HT-29", "category": "y"}
{"query-smiles": "COc1ccc(S(=O)(=O)N2CCc3cccc(NC(=O)c4cccs4)c32)cc1", "target-of-assay": "HT-29", "category": "y"}
{"query-smiles": "COc1ccc(S(=O)(=O)N2CCc3cccc(NCc4ccccc4)c32)cc1", "target-of-assay": "HT-29", "category": "n"}
{"query-smiles": "COc1ccc(S(=O)(=O)N2CCc3cccc(NC(=O)c4ccc([N+](=O)[O-])cc4)c32)cc1", "target-of-assay": "HT-29", "category": "n"}
{"query-smiles": "COc1ccc(S(=O)(=O)N2CCc3cccc(NC(=O)c4ccncc4)c32)cc1", "target-of-assay": "HT-29", "category": "y"}
{"query-smiles": "COc1ccc(S(=O)(=O)N2CCc3cccc(NC(=O)c4ccccc4)c32)cc1", "target-of-assay": "HT-29", "category": "n"}

----------
Test system: TSGH 9201
assay-text: Cytotoxicity against human TSGH cell line by methylene blue dye assay
Format: functional, cell-based
pIC50: −log10 of the molar value.

{"query-smiles": "COc1ccc(S(=O)(=O)N2CCc3cccc(NCc4ccccc4)c32)cc1", "sign-qualifier": "<", "pIC50": 5.00}
{"query-smiles": "COc1ccc(S(=O)(=O)N2CCc3cccc(NC(=O)c4ccc(F)cc4)c32)cc1", "sign-qualifier": "=", "pIC50": 7.00}
{"query-smiles": "COc1ccc(S(=O)(=O)N2CCc3cccc(NC(=O)c4ccccc4)c32)cc1", "sign-qualifier": "=", "pIC50": 6.70}

----------
System: KB
assay-text: Cytotoxicity against KB-VIN 10 cell line by methylene blue dye assay
Type: functional, cell-based
condition-parameters: Homo sapiens
The label Y is reserved for IC50 strictly under 40 nM; N covers values equal to or above it.

{"molecule": "COc1ccc(S(=O)(=O)N2CCc3cccc(NC(=O)c4ccncc4)c32)cc1", "category": "Y"}
{"molecule": "COc1ccc(S(=O)(=O)N2CCc3cccc(NC(=O)c4cccs4)c32)cc1", "category": "N"}
{"molecule": "COc1cc2c(c(OC)c1OC)-c1ccc(OC)c(=O)cc1[C@@H](NC(C)=O)CC2 [COLCHICINE]", "category": "N"}
{"molecule": "COc1ccc(S(=O)(=O)N2CCc3cccc(NC(=O)c4ccc(F)cc4)c32)cc1", "category": "N"}
{"molecule": "COc1ccc(S(=O)(=O)N2CCc3cccc(NC(=O)c4ccc([N+](=O)[O-])cc4)c32)cc1", "category": "N"}
{"molecule": "COc1ccc(S(=O)(=O)N2CCc3cccc(NC(=O)c4ccco4)c32)cc1", "category": "Y"}
{"molecule": "COc1ccc(S(=O)(=O)N2CCc3cccc(NC(C)=O)c32)cc1", "category": "N"}
{"molecule": "COc1ccc(S(=O)(=O)N2CCc3cccc(NC(=O)c4ccccc4)c32)cc1", "category": "N"}
{"molecule": "COc1ccc(S(=O)(=O)N2CCc3cccc(NCc4ccccc4)c32)cc1", "category": "N"}

----------
compounds and their reported IC50
Tested on: KB
assay-text: Cytotoxicity against human KB cell line by methylene blue dye assay
Format: functional, cell-based
reported-property: IC50 (nM)

{"query-smiles": "COc1ccc(S(=O)(=O)N2CCc3cccc(NC(=O)Oc4ccccc4)c32)cc1", "reported-property": "IC50", "sign-qualifier": ">", "result": 10000}
{"query-smiles": "COc1ccc(S(=O)(=O)N2CCc3cccc(NC(=O)C(C)(C)C)c32)cc1", "reported-property": "IC50", "sign-qualifier": "=", "result": 359}
{"query-smiles": "COc1ccc(S(=O)(=O)N2CCc3cccc(NC(=O)c4ccncc4)c32)cc1", "reported-property": "IC50", "sign-qualifier": "=", "result": 9.6}
{"query-smiles": "COc1ccc(S(=O)(=O)N2CCc3cccc(NC(C)=O)c32)cc1", "reported-property": "IC50", "sign-qualifier": "=", "result": 89}
{"query-smiles": "COc1ccc(S(=O)(=O)N2CCc3cccc(N)c32)cc1", "reported-property": "IC50", "sign-qualifier": "=", "result": 2800}

----------
System: KB
assay-text: Cytotoxicity against human KB cell line by methylene blue dye assay
Format: functional, cell-based
pIC50: −log10 of the molar value.

{"query-smiles": "COc1ccc(C(=O)Nc2cccc3c2N(S(=O)(=O)c2ccc(OC)cc2)CC3)cc1", "sign-qualifier": "=", "pIC50": 5.59}
{"query-smiles": "COc1ccc(S(=O)(=O)N2CCc3cccc(NCc4ccccc4)c32)cc1", "sign-qualifier": "<", "pIC50": 5.00}
{"query-smiles": "COc1ccc(S(=O)(=O)N2CCc3cccc(NS(=O)(=O)c4ccc(F)cc4)c32)cc1", "sign-qualifier": "=", "pIC50": 5.92}
{"query-smiles": "COc1ccc(S(=O)(=O)N2CCc3cccc(NC(=O)c4ccc(F)cc4)c32)cc1", "sign-qualifier": "=", "pIC50": 7.03}
{"query-smiles": "COc1ccc(S(=O)(=O)N2CCc3cccc(NC(=O)c4ccc(C#N)cc4)c32)cc1", "sign-qualifier": "=", "pIC50": 6.98}
{"query-smiles": "COc1ccc(S(=O)(=O)N2CCc3cccc(NC(=O)c4ccc([N+](=O)[O-])cc4)c32)cc1", "sign-qualifier": "=", "pIC50": 6.99}
{"query-smiles": "COC(=O)c1ccc(C(=O)Nc2cccc3c2N(S(=O)(=O)c2ccc(OC)cc2)CC3)cc1", "sign-qualifier": "=", "pIC50": 6.42}
{"query-smiles": "COc1ccc(S(=O)(=O)N2CCc3cc(Br)cc(NC(=O)c4ccncc4)c32)cc1", "sign-qualifier": "=", "pIC50": 7.04}
{"query-smiles": "COc1ccc(S(=O)(=O)N2CCc3cccc(NC(=O)c4ccccc4)c32)cc1", "sign-qualifier": "=", "pIC50": 6.53}
{"query-smiles": "COc1ccc(S(=O)(=O)N2CCc3cccc(NC(=O)c4cccs4)c32)cc1", "sign-qualifier": "=", "pIC50": 7.33}
{"query-smiles": "COc1ccc(S(=O)(=O)N2CCc3cccc(NC(=O)N(C)c4ccccc4)c32)cc1", "sign-qualifier": "<", "pIC50": 5.00}

----------
target-of-assay: Tubulin
assay-text: Inhibition of tubulin polymerization

{"query-smiles": "COc1ccc(S(=O)(=O)N2CCc3cccc(NC(=O)c4ccco4)c32)cc1", "sign-qualifier": "=", "IC50 / nM": 1200}
{"query-smiles": "COc1ccc(S(=O)(=O)N2CCc3cccc(NCc4ccccc4)c32)cc1", "sign-qualifier": ">", "IC50 / nM": 5000}
{"query-smiles": "COc1ccc(S(=O)(=O)N2CCc3cccc(NC(=O)c4cccs4)c32)cc1", "sign-qualifier": "=", "IC50 / nM": 1700}
{"query-smiles": "COc1ccc(S(=O)(=O)N2CCc3cccc(NC(C)=O)c32)cc1", "sign-qualifier": "=", "IC50 / nM": 1900}
{"query-smiles": "COc1ccc(S(=O)(=O)N2CCc3cccc(NC(=O)c4ccc([N+](=O)[O-])cc4)c32)cc1", "sign-qualifier": "=", "IC50 / nM": 1900}
{"query-smiles": "COc1ccc(S(=O)(=O)N2CCc3cccc(NC(=O)c4ccncc4)c32)cc1", "sign-qualifier": "=", "IC50 / nM": 1100}
{"query-smiles": "COc1ccc(S(=O)(=O)N2CCc3cccc(NC(=O)c4ccc(F)cc4)c32)cc1", "sign-qualifier": "=", "IC50 / nM": 1500}

----------
Test system: KB
assay-text: Cytotoxicity against human KB cell line by methylene blue dye assay
Assay type: functional, cell-based

{"compound": "COc1ccc(S(=O)(=O)N2CCc3cccc(NC(=O)c4ccco4)c32)cc1", "target-of-assay": "KB", "units": "nM", "IC50": 9.6}
{"compound": "COc1ccc(S(=O)(=O)N2CCc3cccc(NS(=O)(=O)c4ccccc4)c32)cc1", "target-of-assay": "KB", "units": "nM", "IC50": 650}
{"compound": "COc1ccc(S(=O)(=O)N2CCc3cc(Br)cc(NC(=O)c4ccco4)c32)cc1", "target-of-assay": "KB", "units": "nM", "IC50": 89}
{"compound": "COc1cc2c(c(OC)c1OC)-c1ccc(OC)c(=O)cc1[C@@H](NC(C)=O)CC2 [COLCHICINE]", "target-of-assay": "KB", "units": "nM", "IC50": 13.3}
{"compound": "COc1ccc(S(=O)(=O)N2CCc3cccc(NS(=O)(=O)c4ccc([N+](=O)[O-])cc4)c32)cc1", "target-of-assay": "KB", "units": "nM", "IC50": 1100}
